Reference source for all entries: patent US9556165B2

Recorded MIC values for a group of molecules are listed next.
Tested on: B. fragilis 6688
Assay: MIC determination, broth microdilution (CLSI)
Type: cell-based
Details: Bacteroides fragilis, 6688, strain 15; broth microdilution; read-out: MIC strain 15 (B. fragilis 6688)

{"Molecule": "CC1(C)[C@H](NC(=O)/C(=N\\O[C@@H](COc2ccc(C(=N)NCC3CCCN3)cc2)C(=O)O)c2csc(N)n2)C(=O)N1OS(=O)(=O)O (stereo partly drawn)", "MIC [µg/mL]": 8}
{"Molecule": "CC1(C)[C@H](NC(=O)/C(=N\\OC(COc2ccc(C(=N)NC3CCCNC3)cc2)C(=O)O)c2csc(N)n2)C(=O)N1OS(=O)(=O)O (stereo in doubt)", "MIC [µg/mL]": 8}
{"Molecule": "Cc1sc(C(=N)N)nc1OCCO/N=C(\\C(=O)N[C@@H]1C(=O)N(OS(=O)(=O)O)C1(C)C)c1csc(N)n1", "MIC [µg/mL]": 2}
{"Molecule": "CC1(C)[C@H](NC(=O)/C(=N\\OCCOc2ccc(C3=NCC(CN)N3)cc2)c2csc(N)n2)C(=O)N1OS(=O)(=O)O (stereo partly drawn)", "MIC [µg/mL]": 4}
{"Molecule": "C[C@H]1[C@H](NC(=O)/C(=N\\OCCOc2cc(C(=N)N)nn2C)c2csc(N)n2)C(=O)N1S(=O)(=O)O", "MIC [µg/mL]": 8}
{"Molecule": "CN1CC(NC(=N)c2ccc(OC[C@H](O/N=C(\\C(=O)N[C@@H]3C(=O)N(OS(=O)(=O)O)C3(C)C)c3csc(N)n3)C(=O)O)cc2)C1", "MIC [µg/mL]": 16}

* * *

System: S. aureus 133
Experiment: MIC determination, broth microdilution (CLSI)
Type: cell-based
Conditions: Staphylococcus aureus, 133, strain 11; read-out: strain 11 MIC
MIC values, listed per item

{"Compound": "N=C(N)c1ccc(OCCO/N=C(\\C(=O)N[C@@H]2C(=O)N(S(=O)(=O)O)[C@@H]2C(N)=O)c2csc(N)n2)cc1 [Example 66]", "Assayed System": "S. aureus 133", "MIC": "1 µg/mL"}
{"Compound": "C[C@@H]1[C@H](NC(=O)/C(=N\\OCCCOc2ccc(C(=N)N)cc2)c2csc(N)n2)C(=O)N1S(=O)(=O)O [Example 48]", "Assayed System": "S. aureus 133", "MIC": "0.5 µg/mL"}
{"Compound": "CN(C)C(=O)[C@@H]1C[C@H](NC(=N)c2ccc(OCCO/N=C(\\C(=O)N[C@@H]3C(=O)N(OS(=O)(=O)O)C3(C)C)c3csc(N)n3)cc2)CN1 [Example 42]", "Assayed System": "S. aureus 133", "MIC": "≤ 0.063 µg/mL"}
{"Compound": "CC1(C)[C@H](NC(=O)/C(=N\\OCCOc2ccc(C(=N)N[C@H](CN)CO)cc2)c2csc(N)n2)C(=O)N1OS(=O)(=O)O [Example 85]", "Assayed System": "S. aureus 133", "MIC": "≤ 0.063 µg/mL"}
{"Compound": "CC1(C)[C@H](NC(=O)/C(=N\\OCCOc2ccc(C(=N)NC(CN)CN)cc2)c2csc(N)n2)C(=O)N1OS(=O)(=O)O [Example 84]", "Assayed System": "S. aureus 133", "MIC": "≤ 0.063 µg/mL"}
{"Compound": "CN1CC[C@H](NC(=N)c2ccc(OC[C@H](O/N=C(\\C(=O)N[C@@H]3C(=O)N(OS(=O)(=O)O)C3(C)C)c3csc(N)n3)C(=O)O)cc2)C1 [Example 101]", "Assayed System": "S. aureus 133", "MIC": "≤ 0.063 µg/mL"}
